System name: Solute carrier organic anion transporter family member 1B3 (Homo sapiens, UniProt Q9NPD5)
Sequence (Q9NPD5 whole entry): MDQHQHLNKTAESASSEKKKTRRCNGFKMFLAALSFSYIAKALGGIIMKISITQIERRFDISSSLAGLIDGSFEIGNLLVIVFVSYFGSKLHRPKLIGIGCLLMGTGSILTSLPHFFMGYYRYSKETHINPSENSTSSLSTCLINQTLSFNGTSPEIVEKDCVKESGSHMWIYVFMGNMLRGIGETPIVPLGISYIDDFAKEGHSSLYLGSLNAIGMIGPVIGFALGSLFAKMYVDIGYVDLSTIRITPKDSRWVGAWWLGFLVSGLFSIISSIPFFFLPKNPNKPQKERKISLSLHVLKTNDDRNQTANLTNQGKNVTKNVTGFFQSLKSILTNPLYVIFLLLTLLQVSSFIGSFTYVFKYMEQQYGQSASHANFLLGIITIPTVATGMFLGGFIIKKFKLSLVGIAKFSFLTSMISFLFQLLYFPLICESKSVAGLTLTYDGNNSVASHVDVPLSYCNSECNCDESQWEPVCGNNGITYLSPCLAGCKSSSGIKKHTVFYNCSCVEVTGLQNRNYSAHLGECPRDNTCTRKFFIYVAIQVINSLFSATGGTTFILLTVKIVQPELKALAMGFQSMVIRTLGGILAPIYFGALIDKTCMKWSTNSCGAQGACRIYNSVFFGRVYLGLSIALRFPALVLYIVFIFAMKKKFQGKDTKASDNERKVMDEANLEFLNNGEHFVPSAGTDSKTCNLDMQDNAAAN
Condition set: chinese hamster, cho, 10 µM
For each of the compounds below, state its residual activity.
# unit: % | format: bare number

INPUT: Need residual activity of `CC(=O)O[C@H]1C[C@@H](O)C(C)(C)[C@@H]2C[C@@H](OC(C)=O)[C@]3(C)[C@H](CC[C@@]4(C)[C@@H](c5ccoc5)OC(=O)[C@H]5O[C@@]534)[C@@]12C` , thanks.
OUTPUT: 88.69

INPUT: Need residual activity of NS(=O)(=O)c1cc(C2(O)NC(=O)c3ccccc32)ccc1Cl (centres undefined) , thanks.
OUTPUT: 67.04

INPUT: Need residual activity of CO/N=C1\CN(c2nc3c(cc2F)c(=O)c(C(=O)O)cn3C2CC2)CC1CN.CS(=O)(=O)O (centres undefined) [GEMIFLOXACIN MESYLATE] , thanks.
OUTPUT: 108.8

INPUT: Need residual activity of Cl.NCC(=O)c1ccccc1 [PHENACYLAMINE HYDROCHLORIDE] , thanks.
OUTPUT: 95.9
